Each entry below lists one item and its recorded TGI value.
tested on: SF-268 CNS; assay: NCI tumour cell line growth inhibition, 48 h
Observable: TGI

In [3]: df
Out[3]:
                                    compound  observable     value
 0  C=C(C)[C@@H]1CC[C@]2(COCCCN)CC[C@]3(C)[C@H](CC[C@@H]4[C@@](C)(CCCNCCCN)[C@H](C(=C)C)CC[C@]43C)[C@@H]12         TGI   3.72 µM
 1      CC1(C)N/C(=C\[N+](=O)[O-])C(C)(C)N1O         TGI   > 10 µM
 2               C=CCn1c(N)c(C#N)c(C#N)c1CCC         TGI  > 100 µM
 3  Cc1ccc(C(=O)O)c(/C=C2\Cc3ccc(C)cc3C2=O)c1         TGI  > 100 µM
 4  CCOc1cc(C(C)(C)C)ccc1C1=N[C@H](c2ccc(Cl)cc2)[C@H](c2ccc(Cl)cc2)N1C(=O)N1CCN(CC#Cc2cccc3c2CN([C@@H]2CCC(=O)NC2=O)C3=O)CC1         TGI  > 100 µM
 5  CN(C)Cc1cc(C(F)(F)F)ccc1C(O)(c1ccccc1)c1ccccc1         TGI   34.3 µM
 6  COC(=O)c1csc([C@@H](OC(=O)[C@H](C)[C@H](CCCC(C)(Cl)Cl)OC(=O)c2csc([C@H](O)CO)n2)C(C)C)n1         TGI   34.8 µM
 7    Cc1cc(Cl)ccc1OCC(=O)Nc1nc2c(Cl)cccc2s1         TGI  > 100 µM
 8  Cc1ccc(C(=O)N/N=C(\N=Nc2cccc([N+](=O)[O-])c2)c2ccc(N(CCC#N)CCC#N)cc2C)cc1         TGI  > 100 µM
 9                     CC(C)C(O)(C(C)C)C(C)C         TGI  > 100 µM
10  Cc1c(N2C(=O)C(Cl)C2/C=C/c2ccccc2)c(=O)n(-c2ccccc2)n1C (centres undefined)         TGI  > 100 µM
11  COc1cc2c(cc1OCCCCCCCCCCN1C(=O)c3cccc4cccc(c34)C1=O)N=C[C@@H]1CCCN1C2=O         TGI   37.3 µM
12  O=C(Nc1ccc(Cl)cc1)C1C(=O)C(=O)N(c2ccc(Cl)cc2)C1=O (centres undefined)         TGI  > 100 µM
13  Cc1ccc(S(=O)(=O)Nc2cccc3c(=O)[nH]cnc23)cc1         TGI  > 100 µM
14  COc1ccc(C(C#N)NC23CC4CC(CC(C4)C2)C3)cc1 (centres undefined)         TGI  > 100 µM
15        C[C@]12CC=CC(=O)[C@@]1(C)CCC(=O)C2         TGI  > 100 µM
16  N#C[S-].[La+3].c1cnc2c(c1)ccc1cccnc12.c1cnc2c(c1)ccc1cccnc12.c1cnc2c(c1)ccc1cccnc12         TGI   18.9 µM
17     CN(C)CCNC(=O)c1cccc2c(=O)c3ccccc3oc12         TGI  > 100 µM
18   COc1cc(NS(=O)(=O)c2ccc(C)cc2)c2nccnc2c1         TGI   93.7 µM
